target: Human FRA on IGROV-1 human ovarian adenocarcinoma cells (human, UniProt P15328 25-234); assay: cell-based or functional assay
Sequence (P15328 25-234 limits assumed): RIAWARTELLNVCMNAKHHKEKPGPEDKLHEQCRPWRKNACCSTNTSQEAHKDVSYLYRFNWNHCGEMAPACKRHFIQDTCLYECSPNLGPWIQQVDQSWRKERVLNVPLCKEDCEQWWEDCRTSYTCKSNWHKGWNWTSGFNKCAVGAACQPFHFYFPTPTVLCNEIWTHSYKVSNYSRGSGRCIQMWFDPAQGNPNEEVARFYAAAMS
readout name: Internalization IC50
Give me the value, and tack the unit on after it.

Fill blank: measured Internalization IC50 of the binder MORAb-003 anti-FRA antibody, lot NB809-70 (CuCl supplement; harvested 13 days after initiation of culture) (antibody, human IgG1, kappa, V domains shown, N-linked neutral glycans at Asn299 in SEQ ID NO: 5) VH: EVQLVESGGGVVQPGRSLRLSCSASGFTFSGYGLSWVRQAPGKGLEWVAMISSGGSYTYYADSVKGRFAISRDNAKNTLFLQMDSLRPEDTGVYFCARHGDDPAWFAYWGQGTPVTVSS VL: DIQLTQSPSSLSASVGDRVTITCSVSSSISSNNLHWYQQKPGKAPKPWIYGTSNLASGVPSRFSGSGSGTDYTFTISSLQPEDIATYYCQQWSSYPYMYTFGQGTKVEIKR is ____. 0.027 µg/mL

Fill blank: measured Internalization IC50 of the binder MORAb-003 anti-FRA antibody, lot NB809-68 (high CO2; harvested 13 days after initiation of culture) (antibody, human IgG1, kappa, V domains shown, N-linked neutral glycans at Asn299 in SEQ ID NO: 5) VH: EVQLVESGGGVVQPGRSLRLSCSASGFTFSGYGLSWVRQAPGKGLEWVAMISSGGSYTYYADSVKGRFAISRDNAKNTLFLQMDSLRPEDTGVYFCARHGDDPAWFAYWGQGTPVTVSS VL: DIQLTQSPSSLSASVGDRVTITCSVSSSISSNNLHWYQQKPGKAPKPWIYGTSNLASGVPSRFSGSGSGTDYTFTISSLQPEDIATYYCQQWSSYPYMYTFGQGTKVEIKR is ____. 0.028 µg/mL

***
Fill blank: measured Internalization IC50 of the binder MORAb-003 anti-FRA antibody, lot NB810-10 (positive control; harvested 14 days after initiation of culture) (antibody, human IgG1, kappa, V domains shown, N-linked neutral glycans at Asn299 in SEQ ID NO: 5, also called Pos. ctl; positive control (round 1)) VH: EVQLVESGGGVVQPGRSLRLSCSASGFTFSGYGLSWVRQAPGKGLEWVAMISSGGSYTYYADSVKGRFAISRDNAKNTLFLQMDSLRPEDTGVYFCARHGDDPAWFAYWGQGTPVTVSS VL: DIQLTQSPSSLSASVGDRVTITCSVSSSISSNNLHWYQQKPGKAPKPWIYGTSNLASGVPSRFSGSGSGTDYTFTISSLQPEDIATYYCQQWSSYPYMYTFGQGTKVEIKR is ____. 1.63 µg/mL

Fill blank: measured Internalization IC50 of the binder MORAb-003 anti-FRA antibody reference standard (antibody, human IgG1, kappa, V domains shown, N-linked neutral glycans at Asn299 in SEQ ID NO: 5) VH: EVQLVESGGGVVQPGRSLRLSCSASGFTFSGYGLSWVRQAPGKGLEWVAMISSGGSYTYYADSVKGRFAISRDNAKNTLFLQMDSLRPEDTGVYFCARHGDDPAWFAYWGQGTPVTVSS VL: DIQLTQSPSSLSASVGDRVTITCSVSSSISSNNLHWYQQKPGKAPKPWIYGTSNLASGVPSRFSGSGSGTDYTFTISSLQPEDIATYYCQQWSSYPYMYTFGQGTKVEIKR is ____. 0.014 µg/mL

Fill blank: measured Internalization IC50 of the binder MORAb-003 anti-FRA antibody, lot NB809-65 (positive control; harvested 13 days after initiation of culture) (antibody, human IgG1, kappa, V domains shown, N-linked neutral glycans at Asn299 in SEQ ID NO: 5, also called Pos. ctl; positive control (round 2)) VH: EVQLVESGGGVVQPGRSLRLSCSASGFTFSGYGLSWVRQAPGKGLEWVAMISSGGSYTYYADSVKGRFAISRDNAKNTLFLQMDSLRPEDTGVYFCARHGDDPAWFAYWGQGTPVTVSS VL: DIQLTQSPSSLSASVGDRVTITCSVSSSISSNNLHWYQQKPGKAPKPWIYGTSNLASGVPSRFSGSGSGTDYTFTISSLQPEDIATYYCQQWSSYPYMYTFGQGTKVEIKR is ____. 0.014 µg/mL

FYI, the data here is from patent US20120164137A1.
